test system: CEM cells HIV-1 protection, formazan growth assay; assay: NCI AIDS Antiviral Assay; conditions: measured here: growth of uninfected CEM cells
observation.type: IC50

Recorded IC50, per entry:
compound	IC50
O=C1C2C=CC(n3[nH]c(=O)n(Cc4ccccc4)c3=O)CC2C(=O)N1c1cccc(Cl)c1 (stereo unspecified)	> 398 µM
CCOC(=O)[C@@]1(C(C)=O)CC(C)=C(C)C[S@]1=O	> 200 µM
CC(C)(C)n1c(=O)n(-c2ccccc2)n(C(C)(C)C)c1=O	> 200 µM
Cc1cccc2ns[s+]c12	> 18.6 µM
COC(=O)CCCc1ccc2c(c1)CCC2	> 200 µM

Qu. For the compound CC(=O)OC1CCC2(C)C(=CCC3C2CCC2(C)C3CC3N(c4ccccc4Cl)C32C#N)C1 (stereo unspecified) , give its reported IC50.
Ans. > 21.4 µM

Qu. Note down IC50 recorded for Fc1ccccc1-c1nn2c(C34CC5CC(CC(C5)C3)C4)nnc2s1
Ans. > 200 µM

Qu. Return reported IC50. Input compound: c1ccc2c(c1)[nH]c1c2nc2ccccn21
Ans. > 1020 µM

Qu. Provide measured IC50 value, entry: Cc1cc(S(=O)(=O)NC2=NC(c3ccccc3)c3cc(Cl)ccc3N2)c(S)cc1Cl (stereo unspecified)
Ans. > 200 µM

Qu. Input O=C1CCC(=O)N2CCCCN12 , output reported IC50.
Ans. > 407 µM

Qu. Return the recorded IC50 value; entry: CCC(c1ccc(Cl)cc1)N1CCC2(CC1)C(=O)NCN2c1ccccc1 (stereo unspecified)
Ans. > 200 µM

Entry source: PubChem BioAssay AID179
